Kindly state EC50 for each of the entries shown.
assayed.system: F508del V470 CFTR (Homo sapiens, UniProt P13569, DEL508-508)
Sequence (P13569 with tags, fused parts or gaps DEL508-508): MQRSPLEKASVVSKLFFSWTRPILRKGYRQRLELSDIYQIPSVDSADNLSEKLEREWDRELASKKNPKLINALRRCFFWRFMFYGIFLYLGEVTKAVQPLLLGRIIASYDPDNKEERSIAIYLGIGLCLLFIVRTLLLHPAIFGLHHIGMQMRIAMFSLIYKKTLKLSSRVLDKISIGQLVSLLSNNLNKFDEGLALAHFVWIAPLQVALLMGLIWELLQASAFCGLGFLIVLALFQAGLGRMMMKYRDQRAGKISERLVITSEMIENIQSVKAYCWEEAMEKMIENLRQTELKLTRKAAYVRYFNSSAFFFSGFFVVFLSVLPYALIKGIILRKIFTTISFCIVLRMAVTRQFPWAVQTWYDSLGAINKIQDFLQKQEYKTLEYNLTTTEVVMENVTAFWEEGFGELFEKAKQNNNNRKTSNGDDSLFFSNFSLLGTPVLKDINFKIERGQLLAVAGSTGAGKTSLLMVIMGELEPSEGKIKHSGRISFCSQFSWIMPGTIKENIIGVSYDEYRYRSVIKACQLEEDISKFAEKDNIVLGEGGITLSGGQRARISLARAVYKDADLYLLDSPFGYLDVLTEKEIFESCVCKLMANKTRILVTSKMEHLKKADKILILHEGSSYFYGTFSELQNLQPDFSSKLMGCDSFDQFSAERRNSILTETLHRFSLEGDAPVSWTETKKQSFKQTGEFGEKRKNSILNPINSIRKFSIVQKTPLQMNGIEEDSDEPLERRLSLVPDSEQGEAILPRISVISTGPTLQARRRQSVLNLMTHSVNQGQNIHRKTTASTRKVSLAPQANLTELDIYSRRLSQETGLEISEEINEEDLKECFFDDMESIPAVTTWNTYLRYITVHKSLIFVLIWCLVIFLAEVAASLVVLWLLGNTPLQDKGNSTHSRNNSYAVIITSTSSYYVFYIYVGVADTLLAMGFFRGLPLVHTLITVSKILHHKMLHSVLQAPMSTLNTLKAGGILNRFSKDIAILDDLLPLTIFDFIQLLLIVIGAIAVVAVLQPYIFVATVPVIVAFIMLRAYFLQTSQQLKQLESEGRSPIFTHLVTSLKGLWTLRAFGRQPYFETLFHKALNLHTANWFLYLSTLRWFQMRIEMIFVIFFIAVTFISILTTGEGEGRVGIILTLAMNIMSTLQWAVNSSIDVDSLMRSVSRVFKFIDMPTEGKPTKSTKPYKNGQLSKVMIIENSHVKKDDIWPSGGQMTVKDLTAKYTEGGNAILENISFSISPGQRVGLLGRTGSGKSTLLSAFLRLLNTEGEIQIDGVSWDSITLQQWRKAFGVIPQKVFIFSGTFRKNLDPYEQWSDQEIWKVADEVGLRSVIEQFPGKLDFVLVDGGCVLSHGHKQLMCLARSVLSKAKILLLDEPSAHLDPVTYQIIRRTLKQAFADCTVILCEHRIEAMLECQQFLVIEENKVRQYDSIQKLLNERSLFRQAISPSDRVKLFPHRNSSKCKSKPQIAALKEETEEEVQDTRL
assay.text: FRT Ion Flux Assay of F508del CFTR Potentiation
condition.summary: FRT cells expressing F508del V470 CFTR and halide-sensitive YFP, forskolin 20 uM, 30 min
Report the figure in nM without appending any unit label.

Quick one: EC50 of CCC(c1cnn(-c2ccc(F)cc2F)c1)c1c(C#N)c(-c2cnc(C(F)(F)F)nc2)c2c(N)ncnn12 (single isomer, unassigned) [Example 17] ?
13.3

Quick one: EC50 of CC(c1cn(-c2ccc(F)cc2F)nn1)c1c(C#N)c(-c2cnc(C(F)(F)F)nc2)c2c(N)ncnn12 (single isomer, unassigned) [Example 3] ?
10.6

Quick one: EC50 of CC(c1cn(-c2ccccc2F)nn1)c1c(C#N)c(-c2cnc(C(F)(F)F)nc2)c2c(N)ncnn12 (single isomer, unassigned) [Example 1] ?
46.8

Quick one: EC50 of CCC(c1cnn(C(C)C)c1)c1c(C#N)c(-c2cnc(C(F)(F)F)nc2)c2c(N)ncnn12 (single isomer, unassigned) [Example 10] ?
95.9

Quick one: EC50 of CC(c1cn(-c2ccccc2F)nn1)c1cc(-c2cnc(C(F)(F)F)nc2)c2c(N)ncnn12 (single isomer, unassigned) [Example 53] ?
76.4

Quick one: EC50 of CCC(c1cn(-c2cc(F)ccc2F)nn1)c1cc(-c2cnc(C(F)(F)F)nc2)c2c(N)ncnn12 (single isomer, unassigned) [Example 61] ?
253

Quick one: EC50 of "N#Cc1c(-c2cnc(C(F)(F)F)nc2)c2c(N)ncnn2c1Cc1cc(-c2ccccc2F)no1" ?
4.65

Quick one: EC50 of CC(c1cn(-c2ccccc2F)nn1)c1c(C#N)c(-c2cnc(C(F)(F)F)nc2)c2c(N)ncnn12 (single isomer, unassigned) [Example 2] ?
9.14

Quick one: EC50 of CCC(c1cn(-c2cc(F)ccc2F)nn1)c1c(C#N)c(-c2cnc(C(F)(F)F)nc2)c2c(N)ncnn12 (single isomer, unassigned) ?
17.2

Quick one: EC50 of CCC(c1cn(-c2ccccc2F)nn1)n1nc(-c2cnc(C(F)(F)F)nc2)c2c(N)ncnc21 (single isomer, unassigned) [Example 90] ?
31.8

Quick one: EC50 of CCC(c1cn(-c2ccc(F)c(F)c2)nn1)c1cc(-c2cnc(C(F)(F)F)nc2)c2c(N)ncnn12 (single isomer, unassigned) [Example 63] ?
29.6

Quick one: EC50 of CCC(c1cn(-c2ccccc2F)nn1)c1cc(-c2cnc(C(F)(F)F)nc2)c2c(N)ncnn12 (stereo not drawn) [Example 82] ?
5.83

---

assayed.system: CFTR (Homo sapiens, UniProt P13569)
assay.text: Ussing Chamber Electrophysiology Assay of CFTR Potentiation in CF Bronchial Epithelial Cells
condition.summary: primary CF hBE cells, short-circuit current, scaled to DMSO (0%) and positive control potentiator (100%)
Counter-ions that a name gives are not always drawn.
Kindly state EC50 for each of the entries shown.
Report the figure in nM without appending any unit label.

Quick one: EC50 of CC(c1cn(-c2ccc(F)cc2F)nn1)c1c(C#N)c(-c2cnc(C(F)(F)F)nc2)c2c(N)ncnn12 (stereo not drawn) [Example 24] ?
20.9

Quick one: EC50 of CC(c1cnn(-c2ccc(F)cc2F)c1)c1c(C#N)c(-c2cnc(C(F)(F)F)nc2)c2c(N)ncnn12 (single isomer, unassigned) [Example 20] ?
8.94

Quick one: EC50 of CC(c1cn(-c2ccccc2F)nn1)c1c(C#N)c(-c2cnc(C(F)(F)F)nc2)c2c(N)ncnn12 (single isomer, unassigned) [Example 1] ?
51.1

Quick one: EC50 of Nc1ncnn2c(Cc3cn(-c4ccccc4F)nn3)nc(-c3ccc(Cl)cc3)c12 [Example 93, trifluoroacetate] ?
116

Quick one: EC50 of CC(c1cnn(-c2ccccc2F)c1)c1c(C#N)c(-c2cnc(C(F)(F)F)nc2)c2c(N)ncnn12 (single isomer, unassigned) [Example 12] ?
4

Quick one: EC50 of CCC(c1cn(-c2ccc(F)cc2F)nn1)c1c(C#N)c(-c2cnc(C(F)(F)F)nc2)c2c(N)ncnn12 (single isomer, unassigned) [Example 6] ?
5.48
